System: HuH-7 cells
Assay: Anti-proliferation activity assay (CCK-8)
Format: cell-based, human
Conditions: Homo sapiens, Huh-7, 72 h
pIC50: −log10 of the molar value.
Parameter Measured: pIC50

Compound	Test Target	Measurement
CNC(=O)c1ccccc1Nc1nc(Nc2ccc(N3CCN(CCCN)CC3)cc2)ncc1Cl [Compound 4, GSK3182571]	HuH-7 cells	6.06
CNC(=O)c1nn(C)c2c1C(C)(C)Cc1cnc(Nc3ccc(N4CCN(C)CC4)cc3)nc1-2 [Compound 5, Milciclib]	HuH-7 cells	4.10

----------
Target: WEE1 kinase (Homo sapiens, UniProt P30291)
Sequence (P30291 whole entry): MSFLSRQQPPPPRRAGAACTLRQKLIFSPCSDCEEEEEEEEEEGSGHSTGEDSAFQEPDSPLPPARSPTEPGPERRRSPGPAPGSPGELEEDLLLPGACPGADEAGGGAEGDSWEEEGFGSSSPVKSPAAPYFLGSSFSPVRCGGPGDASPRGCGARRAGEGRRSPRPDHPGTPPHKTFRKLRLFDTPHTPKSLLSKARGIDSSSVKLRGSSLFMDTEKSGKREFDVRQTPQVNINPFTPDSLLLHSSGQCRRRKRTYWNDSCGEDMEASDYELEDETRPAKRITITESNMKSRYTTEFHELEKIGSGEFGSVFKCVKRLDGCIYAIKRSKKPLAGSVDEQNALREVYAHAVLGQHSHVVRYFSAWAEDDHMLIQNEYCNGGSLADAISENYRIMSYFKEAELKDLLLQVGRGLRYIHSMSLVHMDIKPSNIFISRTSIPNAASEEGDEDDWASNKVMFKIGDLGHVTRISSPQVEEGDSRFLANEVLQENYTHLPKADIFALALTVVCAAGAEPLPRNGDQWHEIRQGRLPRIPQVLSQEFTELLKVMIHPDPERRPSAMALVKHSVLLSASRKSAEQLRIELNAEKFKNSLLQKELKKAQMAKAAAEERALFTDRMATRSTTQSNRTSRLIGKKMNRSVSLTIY
Assay: Inhibitory activity assay (ADP-Glo kinase assay)
Type: biochemical
Conditions: compound 25 μM; relative inhibition rate, Staurosporine (10 µM) as positive control
Procedure: The tested compounds were dissolved in DMSO to make a 10 mM stock solution, which was further diluted to a drug solution of 25 µM. […] Transfer 20 nL compound to 384 assay plate by Echo 655. […] Read the RLU (relative light-emitting unit) signal using the BMG multifunction microplate reader, and the signal intensity is used to characterize the degree of kinase activity. […] The inhibition rates were calculated using the equations (X: log of inhibitor concentration; Y: % Inhibition). […]
Where a name gives a salt, the structure may show the parent alone.
Entries and their measured inhibition at 25 µM follow.
Parameter Measured: inhibition at 25 µM (%)

Compound	Measurement
COc1cc(-c2cc(-c3ccc(N4CCNCC4)cc3)cnc2C)cc(OC)c1OC [Compound 10, LDN-214117]	32.8
CN1CCCN(C(=O)c2cccc(-c3ccc(/C=C4/C(=O)Nc5ccc(Cl)cc54)o3)c2)CC1 [Compound 6, CX-6258 hydrochloride]	24.8
C[C@@H](Oc1ccc2[nH]nc(/C=C/c3cnn(CCO)c3)c2c1)c1c(Cl)cncc1Cl [Compound 9, LY2874455]	58.2
